Entries and their INHIBITION values follow.
# Test system: Plasmodium berghei
# protocol: Screen against P. berghei liver stage (PbLuc), transformed with Luciferase, at 10uM
# Assay type: functional, HepG2
# applied_conditions: tested at 10 uM
The whole screen tested about 69,000 compounds, of which about 8,600 (12%) showed an effect of 50% or more. The sample holds strong results, similar compounds and a random draw of the others, so the mix is not that of the screen.

- molecule: "COCCn1c2c(ccc1=O)CC(NS(C)(=O)=O)CC2 (stereo not given)"
  system_name: "Plasmodium berghei"
  INHIBITION: "58.6%"
- molecule: "Cc1oc(-c2cccc(F)c2F)nc1CN(CCO)C(C)C"
  system_name: "Plasmodium berghei"
  INHIBITION: "13.6%"
- molecule: "Cc1ccc(CN2CCC3(C2)C(=O)N(CC2CC2)c2ccccc23)s1 (stereo not given)"
  system_name: "Plasmodium berghei"
  INHIBITION: "55%"
- molecule: "CC(=O)N1C[C@H]2CCCN(S(=O)(=O)c3ccc(Cl)s3)[C@H]2C1"
  system_name: "Plasmodium berghei"
  INHIBITION: "3.48%"
- molecule: "Cc1cc(C(F)(F)F)nc(CNC(=O)CCn2cccn2)n1"
  system_name: "Plasmodium berghei"
  INHIBITION: "58.1%"
- molecule: "Cc1cc(C(F)(F)F)nc(CNc2nc(C)nc3c2cnn3C)n1"
  system_name: "Plasmodium berghei"
  INHIBITION: "19.4%"
- molecule: "CC(C)CN1C(=O)C2(CCN(Cc3ccc(F)cc3)C2)c2ccccc21 (stereo not given)"
  system_name: "Plasmodium berghei"
  INHIBITION: "38.2%"
- molecule: "CN(C)C(=O)COCc1nnc2n1CCN(Cc1ccsc1)C2"
  system_name: "Plasmodium berghei"
  INHIBITION: "39.4%"
- molecule: "CCCOC1CCCN(C(=O)c2cc(CN(CC)CC)c(CC)o2)C1 (stereo not given)"
  system_name: "Plasmodium berghei"
  INHIBITION: "18.5%"
- molecule: "CN1C[C@@H](COCC2CC2)[C@H]2CCN(Cc3ccco3)CC[C@H]2C1=O"
  system_name: "Plasmodium berghei"
  INHIBITION: "46.7%"
- molecule: "O=C(C1CC1)N1C[C@H]2CCCN(S(=O)(=O)c3cccc(F)c3)[C@H]2C1"
  system_name: "Plasmodium berghei"
  INHIBITION: "26.97%"
- molecule: "Cn1ccnc1CN1CCCN(C(=O)COCC2CC2)CC1"
  system_name: "Plasmodium berghei"
  INHIBITION: "13.3%"
- molecule: "O=C(Cn1cccn1)NCC1(c2ccccc2)CC1"
  system_name: "Plasmodium berghei"
  INHIBITION: "-8.3%"
- molecule: "Cn1cc(CNC2CCc3c(ccc(=O)n3Cc3ccncc3)C2)cn1 (stereo not given)"
  system_name: "Plasmodium berghei"
  INHIBITION: "42.1%"
- molecule: "COc1ccc(S(=O)(=O)N2CCC[C@@H]3CN(C(=O)C4CC4)C[C@@H]32)cc1F"
  system_name: "Plasmodium berghei"
  INHIBITION: "40.75%"
- molecule: "CC(C)CN1C(=O)C2(CCN(Cc3ccoc3)C2)c2ccccc21 (stereo not given)"
  system_name: "Plasmodium berghei"
  INHIBITION: "23.3%"
- molecule: "CN(C)c1ncc(-c2cccc(C(N)=O)c2)c(C2CNCCO2)n1 (stereo not given)"
  system_name: "Plasmodium berghei"
  INHIBITION: "17.3%"
- molecule: "COc1cccc(OCCN2CC[C@@](O)(C3CCOCC3)[C@H](C)C2)c1"
  system_name: "Plasmodium berghei"
  INHIBITION: "49.3%"
- molecule: "Cc1cc(C(F)(F)F)nc(CNC(=O)C2CCCCCN2C)n1 (stereo not given)"
  system_name: "Plasmodium berghei"
  INHIBITION: "54.5%"
- molecule: "CCC(C(=O)NCCc1nc(C)cc(C(F)(F)F)n1)n1cccn1 (stereo not given)"
  system_name: "Plasmodium berghei"
  INHIBITION: "57%"
- molecule: "CC(C)CN1C(=O)C2(CCN(Cc3ccsc3)C2)c2ccccc21 (stereo not given)"
  system_name: "Plasmodium berghei"
  INHIBITION: "32.2%"
- molecule: "Cc1cc(C(F)(F)F)nc(CNC(=O)CCC2CCCCN2C)n1 (stereo not given)"
  system_name: "Plasmodium berghei"
  INHIBITION: "38.7%"
- molecule: "CN(C)C(=O)Cn1c2c(ccc1=O)CC(NCc1ccoc1)CC2 (stereo not given)"
  system_name: "Plasmodium berghei"
  INHIBITION: "8.31%"
- molecule: "CC(C)N1CCC(CC(=O)N2CCC(C(O)c3nccn3C)CC2)CC1 (stereo not given)"
  system_name: "Plasmodium berghei"
  INHIBITION: "46.7%"
- molecule: "CC(Nc1cccc(CN2CCOC2=O)c1)C(=O)Nc1cccc(F)c1 (stereo not given)"
  system_name: "Plasmodium berghei"
  INHIBITION: "28.15%"
- molecule: "Cc1ccc(C)c(NC(=O)c2cc(S(=O)(=O)N3CCSCC3)c[nH]2)c1"
  system_name: "Plasmodium berghei"
  INHIBITION: "32%"
- molecule: "CN(C)CCn1c2c(ccc1=O)CC(NCc1cccnc1)CC2 (stereo not given)"
  system_name: "Plasmodium berghei"
  INHIBITION: "34.9%"
- molecule: "O=C(c1ccsc1)N1CCN2C[C@H](OCc3cccnc3)C[C@H]2C1"
  system_name: "Plasmodium berghei"
  INHIBITION: "21.6%"
- molecule: "CN(C)CCN(C)c1nc(CCc2ccccc2)nc2c1cnn2C"
  system_name: "Plasmodium berghei"
  INHIBITION: "-13.4%"
- molecule: "CCCc1nc(N(C)CCN2CCCCCC2)c2cnn(C)c2n1"
  system_name: "Plasmodium berghei"
  INHIBITION: "53%"

====

# Tested on: Plasmodium berghei
# protocol: Screen against P. berghei liver stage (PbLuc), transformed with Luciferase, at 10uM
# Format: functional, HepG2
# applied_conditions: tested at 10 uM
Screen size: about 69,000 compounds; about 8,600 (12%) showed an effect of 50% or more. What follows is part of a selection rich in strong results, with near analogues and random picks from the rest.

- compound: "CC(C)(C)c1nnc(CN2CCOC(Cn3cncn3)C2)o1 (centres undefined)"
  INHIBITION: "40.3%"
- compound: "COc1ccc(OC)c(C(=O)N2C[C@@H]3CC[C@H]2CN(C)C3)c1"
  INHIBITION: "9.56%"
- compound: "Cc1cnn(CC2CN(CCCS(=O)(=O)N(C)C)CCO2)c1 (centres undefined)"
  INHIBITION: "77.8%"
- compound: "CC(C)CS(=O)(=O)N1C[C@@H]2C[C@H](C(=O)NCc3ccccc3)[C@H](C1)O2"
  INHIBITION: "9.48%"

====

Entries and their INHIBITION values follow.
# Tested on: Plasmodium berghei
# protocol: Screen against P. berghei liver stage (PbLuc), transformed with Luciferase, at 10uM
# Assay type: functional, HepG2
# applied_conditions: tested at 10 uM
In all, about 69,000 compounds went through this assay and about 8,600 (12%) showed an effect of 50% or more. Many of the other results were omitted from the sample, so strong results are more common in it than they were.

- smiles_notation: "CC(=O)Cc1c(C)nn(-c2cncc(N)c2)c1C"
  INHIBITION (%): 11.5
- smiles_notation: "Cc1nccc(N[C@H]2CN(CCS(C)(=O)=O)C[C@@H]2C2CC2)n1"
  INHIBITION (%): 39.3
- smiles_notation: "Cn1cc(C(=O)Nc2cccc(F)c2)ccc1=O"
  INHIBITION (%): 42.6
- smiles_notation: "Cc1nn(C)c(C)c1CNCc1cccnc1N1CCOCC1"
  INHIBITION (%): 22.5
- smiles_notation: "Cn1cc(C(=O)Nc2cccc(Oc3ccncc3)c2)ccc1=O"
  INHIBITION (%): 51.5
- smiles_notation: "COc1ccc(CNC(=O)Nc2ccc(=O)n(C)c2)cc1"
  INHIBITION (%): 29

====

Entries and their INHIBITION values follow.
# Test system: Plasmodium berghei
# protocol: Screen against P. berghei liver stage (PbLuc), transformed with Luciferase, at 10uM
# Assay type: functional, HepG2
# applied_conditions: tested at 10 uM
Among all 69,000 compounds or so, about 8,600 (12%) showed an effect of 50% or more. Many of the other results were omitted from the sample, so strong results are more common in it than they were.
readout_kind: INHIBITION (%)

- molecule: "Cc1csc(C2(NC(=O)NCCN3CCOCC3)CCC2)n1"
  reported_result: 47.4
- molecule: "CC(=O)N1C[C@H](c2cc(O)nc(C)n2)[C@@H](c2ccccc2F)C1"
  reported_result: 12.45
- molecule: "O=C(c1ccc(F)cc1)N1CCC2(CCN(Cc3ccccn3)C2=O)C1 (stereo unspecified)"
  reported_result: 2.79
- molecule: "O=C(Nc1ccccc1)c1cc2n(n1)CCCN(C(=O)N1CCCC1)C2"
  reported_result: 35
- molecule: "CCS(=O)(=O)NC(CCSC)C(=O)Nc1ccccc1C (stereo unspecified)"
  reported_result: 20
- molecule: "Cc1nc(O)cc([C@@H]2CN(C(=O)C3CC3)C[C@H]2c2ccccc2F)n1"
  reported_result: 60.55
- molecule: "COCC(=O)N1C[C@@H](c2cc(O)nc(C)n2)[C@H](c2ccccc2F)C1"
  reported_result: 24.49
- molecule: "O=C(c1ccccc1F)N1C[C@H]2CCC[C@@]2(COCc2ccncc2)C1"
  reported_result: 15.4
- molecule: "CN1CCCN(c2ccc(F)cc2CNC(=O)c2ccsc2)CC1"
  reported_result: 79.7
- molecule: "Cc1[nH]ncc1C(C)NCc1cccnc1 (stereo unspecified)"
  reported_result: 14.3
- molecule: "CS(=O)(=O)N[C@@H]1CCO[C@]2(CCN(CC3CCOCC3)C2)C1"
  reported_result: -33.9
- molecule: "Cc1ccc(C(=O)NCc2cc(F)ccc2N2CCCN(C)CC2)o1"
  reported_result: 42.1
- molecule: "COc1ccccc1CNC(=O)CS(=O)(=O)Cc1ccccc1"
  reported_result: 29.8
- molecule: "Cc1[nH]ncc1C(C)NCc1ccc(F)cc1 (stereo unspecified)"
  reported_result: 63.7
- molecule: "CCn1c(CN2CCCC(O)(c3ccc(F)cc3)CC2)cnc1SC (stereo unspecified)"
  reported_result: 51.1
- molecule: "Cc1cccc(OCCNC(=O)CN2CCCC2Cn2cncn2)c1 (stereo unspecified)"
  reported_result: 12.7

The measurements presented in this section are drawn from ChEMBL document CHEMBL4513216.
